Molecular target: CaV2.2 (Homo sapiens, UniProt Q00975)
Construct: expressed in transfected cells; host or cells: HEK293
Sequence (Q00975 whole entry): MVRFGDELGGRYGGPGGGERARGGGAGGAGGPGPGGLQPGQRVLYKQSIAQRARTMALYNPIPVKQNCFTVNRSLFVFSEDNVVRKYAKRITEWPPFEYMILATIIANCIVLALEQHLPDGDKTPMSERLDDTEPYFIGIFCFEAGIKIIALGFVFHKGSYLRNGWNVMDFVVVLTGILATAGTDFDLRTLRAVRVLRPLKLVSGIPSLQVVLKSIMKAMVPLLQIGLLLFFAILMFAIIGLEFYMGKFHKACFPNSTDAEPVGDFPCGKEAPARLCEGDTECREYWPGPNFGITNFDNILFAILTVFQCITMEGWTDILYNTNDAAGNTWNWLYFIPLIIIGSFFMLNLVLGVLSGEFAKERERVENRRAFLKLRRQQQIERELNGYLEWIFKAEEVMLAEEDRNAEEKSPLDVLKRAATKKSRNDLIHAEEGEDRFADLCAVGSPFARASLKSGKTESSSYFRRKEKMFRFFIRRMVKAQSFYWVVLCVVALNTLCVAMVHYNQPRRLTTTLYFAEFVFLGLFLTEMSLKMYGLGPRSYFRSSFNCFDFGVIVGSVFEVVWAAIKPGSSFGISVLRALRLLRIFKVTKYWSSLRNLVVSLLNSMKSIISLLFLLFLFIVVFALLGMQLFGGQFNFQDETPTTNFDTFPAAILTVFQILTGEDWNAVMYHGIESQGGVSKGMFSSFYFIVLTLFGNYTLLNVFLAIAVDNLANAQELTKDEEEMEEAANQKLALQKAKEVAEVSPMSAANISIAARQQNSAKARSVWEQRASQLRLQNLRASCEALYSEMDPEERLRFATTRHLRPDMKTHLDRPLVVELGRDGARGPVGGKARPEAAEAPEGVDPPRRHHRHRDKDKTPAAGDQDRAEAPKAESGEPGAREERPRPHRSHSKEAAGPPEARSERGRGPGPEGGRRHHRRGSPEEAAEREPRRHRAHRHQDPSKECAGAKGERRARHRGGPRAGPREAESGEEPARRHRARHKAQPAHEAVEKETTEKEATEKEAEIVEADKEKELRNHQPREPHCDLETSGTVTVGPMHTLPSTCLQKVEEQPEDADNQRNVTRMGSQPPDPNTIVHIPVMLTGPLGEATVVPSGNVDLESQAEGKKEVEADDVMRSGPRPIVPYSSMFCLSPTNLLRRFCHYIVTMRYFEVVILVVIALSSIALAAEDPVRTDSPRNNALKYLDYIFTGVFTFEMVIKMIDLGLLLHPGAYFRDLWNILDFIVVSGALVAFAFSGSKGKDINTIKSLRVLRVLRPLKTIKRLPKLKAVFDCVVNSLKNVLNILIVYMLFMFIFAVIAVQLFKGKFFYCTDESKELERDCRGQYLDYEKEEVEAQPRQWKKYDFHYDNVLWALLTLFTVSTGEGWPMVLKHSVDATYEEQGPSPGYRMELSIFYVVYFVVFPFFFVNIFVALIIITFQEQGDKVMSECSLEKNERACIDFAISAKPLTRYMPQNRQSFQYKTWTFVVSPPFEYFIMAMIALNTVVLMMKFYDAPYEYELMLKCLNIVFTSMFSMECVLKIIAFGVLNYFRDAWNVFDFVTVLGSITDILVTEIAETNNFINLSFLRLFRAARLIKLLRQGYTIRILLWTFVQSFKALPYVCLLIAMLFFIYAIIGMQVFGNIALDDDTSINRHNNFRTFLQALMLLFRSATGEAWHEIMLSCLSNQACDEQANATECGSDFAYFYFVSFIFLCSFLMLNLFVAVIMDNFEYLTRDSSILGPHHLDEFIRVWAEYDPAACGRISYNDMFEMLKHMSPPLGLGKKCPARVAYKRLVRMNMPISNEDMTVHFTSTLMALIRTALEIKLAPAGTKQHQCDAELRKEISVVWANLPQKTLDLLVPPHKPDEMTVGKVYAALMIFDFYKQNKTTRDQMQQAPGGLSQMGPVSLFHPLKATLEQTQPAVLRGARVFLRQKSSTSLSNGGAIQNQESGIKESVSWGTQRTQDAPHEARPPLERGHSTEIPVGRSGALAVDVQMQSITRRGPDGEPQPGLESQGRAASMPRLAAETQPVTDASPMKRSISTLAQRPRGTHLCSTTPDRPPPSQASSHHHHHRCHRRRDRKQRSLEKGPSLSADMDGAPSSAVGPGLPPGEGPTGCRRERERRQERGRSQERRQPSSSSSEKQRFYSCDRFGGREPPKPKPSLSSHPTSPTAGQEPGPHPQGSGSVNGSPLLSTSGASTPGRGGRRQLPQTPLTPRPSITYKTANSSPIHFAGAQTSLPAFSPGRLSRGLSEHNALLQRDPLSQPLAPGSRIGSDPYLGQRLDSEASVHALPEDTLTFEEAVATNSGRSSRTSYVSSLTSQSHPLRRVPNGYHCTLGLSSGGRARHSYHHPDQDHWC
Sequence (P54284 whole entry partner): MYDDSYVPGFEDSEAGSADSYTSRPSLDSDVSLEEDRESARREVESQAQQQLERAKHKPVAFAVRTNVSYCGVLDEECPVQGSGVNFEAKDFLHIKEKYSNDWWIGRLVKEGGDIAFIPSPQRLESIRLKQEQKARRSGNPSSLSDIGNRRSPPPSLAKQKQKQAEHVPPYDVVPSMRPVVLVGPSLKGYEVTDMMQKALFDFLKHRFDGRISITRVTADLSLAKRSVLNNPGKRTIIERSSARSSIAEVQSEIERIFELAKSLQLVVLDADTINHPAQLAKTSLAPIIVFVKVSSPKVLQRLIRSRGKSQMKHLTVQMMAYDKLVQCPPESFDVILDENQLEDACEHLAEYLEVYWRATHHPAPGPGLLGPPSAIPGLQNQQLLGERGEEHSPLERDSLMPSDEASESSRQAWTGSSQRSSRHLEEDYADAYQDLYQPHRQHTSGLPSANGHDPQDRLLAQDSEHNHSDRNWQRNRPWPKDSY
Sequence (P54289 25-946 partner limits assumed): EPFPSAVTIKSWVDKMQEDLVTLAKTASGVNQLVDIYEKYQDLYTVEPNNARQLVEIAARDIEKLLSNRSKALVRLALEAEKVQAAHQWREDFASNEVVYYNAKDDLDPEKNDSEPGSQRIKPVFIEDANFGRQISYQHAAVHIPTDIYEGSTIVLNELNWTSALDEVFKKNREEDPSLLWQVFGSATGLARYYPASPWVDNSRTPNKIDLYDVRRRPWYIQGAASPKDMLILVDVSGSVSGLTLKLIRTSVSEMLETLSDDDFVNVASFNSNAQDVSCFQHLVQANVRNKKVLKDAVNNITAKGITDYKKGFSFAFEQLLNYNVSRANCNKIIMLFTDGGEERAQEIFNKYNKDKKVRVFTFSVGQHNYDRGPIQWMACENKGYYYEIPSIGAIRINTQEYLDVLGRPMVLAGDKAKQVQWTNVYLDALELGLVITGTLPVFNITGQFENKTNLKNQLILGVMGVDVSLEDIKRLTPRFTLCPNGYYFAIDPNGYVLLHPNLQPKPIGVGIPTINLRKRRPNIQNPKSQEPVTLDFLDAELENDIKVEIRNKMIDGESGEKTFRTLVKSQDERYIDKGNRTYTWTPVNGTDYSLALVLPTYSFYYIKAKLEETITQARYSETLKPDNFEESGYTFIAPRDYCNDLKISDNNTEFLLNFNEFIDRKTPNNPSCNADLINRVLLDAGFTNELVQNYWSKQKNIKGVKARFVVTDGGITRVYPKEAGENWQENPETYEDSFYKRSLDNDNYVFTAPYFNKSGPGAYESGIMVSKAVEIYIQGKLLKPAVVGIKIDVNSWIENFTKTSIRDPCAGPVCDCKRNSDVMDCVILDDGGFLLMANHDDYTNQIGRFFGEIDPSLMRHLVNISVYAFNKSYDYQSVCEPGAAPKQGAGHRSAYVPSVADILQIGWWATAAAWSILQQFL
Sequence (P54289 947-1103 partner limits assumed): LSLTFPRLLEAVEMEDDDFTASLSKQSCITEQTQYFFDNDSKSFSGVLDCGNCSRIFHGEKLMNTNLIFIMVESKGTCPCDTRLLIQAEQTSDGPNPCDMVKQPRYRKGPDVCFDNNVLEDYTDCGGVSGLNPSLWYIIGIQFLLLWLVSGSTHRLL
Experiment: VIPR optical membrane potential assay with electrical stimulation
Format: cell-based
Settings: Table 3, biological assay data; read-out: IC50
Entries and their measured IC50 follow.

[
  {
    "molecule": "Cc1c(C(=O)N2CCCC(C)C2)oc2ccc(S(=O)(=O)N3CCCC(C)C3)cc12 (stereo not shown) [compound 413]",
    "IC50": "< 5 µM"
  },
  {
    "molecule": "CCN(CC)C(=O)c1oc2ccc(S(=O)(=O)N3CCCCC3)cc2c1C [compound 202]",
    "IC50": "5 to 20 µM"
  },
  {
    "molecule": "O=C(NCC1CCOCC1)c1cc2cc(S(=O)(=O)N3CCCCCC3)ccc2[nH]1 [compound 418]",
    "IC50": "< 5 µM"
  },
  {
    "molecule": "CC1CCN(S(=O)(=O)c2ccc3oc(C(=O)N4CCCCC4C)cc3c2)CC1 (stereo not shown) [compound 208]",
    "IC50": "< 5 µM"
  },
  {
    "molecule": "CC1CC(C)CN(S(=O)(=O)c2ccc3c(c2)cc(C(=O)N2CCCCC2)n3S(=O)(=O)C(C)C)C1 (stereo not shown) [compound 470]",
    "IC50": "5 to 20 µM"
  },
  {
    "molecule": "CC1CC(C)CN(S(=O)(=O)c2ccc3oc(C(=O)N4CCCCC4C)cc3c2)C1 (stereo not shown) [compound 333]",
    "IC50": "5 to 20 µM"
  },
  {
    "molecule": "Cc1c(C(=O)N2CCN(C)CC2)[nH]c2ccc(S(=O)(=O)N3CCC(C)CC3)cc12 [compound 290]",
    "IC50": "5 to 20 µM"
  },
  {
    "molecule": "Cc1c(C(=O)N2CCCCC2C)oc2ccc(S(=O)(=O)N3CCCCC3)cc12 (stereo not shown) [compound 59]",
    "IC50": "5 to 20 µM"
  },
  {
    "molecule": "CC1CCN(S(=O)(=O)c2ccc3oc(C(=O)NCC4CCOCC4)cc3c2)CC1 [compound 111]",
    "IC50": "5 to 20 µM"
  },
  {
    "molecule": "CN1CCN(C(=O)c2cc3cc(S(=O)(=O)N4CCCCCC4)ccc3n2S(=O)(=O)c2ccccc2)CC1 [compound 135]",
    "IC50": "5 to 20 µM"
  },
  {
    "molecule": "CCN(CC)S(=O)(=O)c1ccc2oc(C(=O)NCCCc3ccccc3)c(C)c2c1 [compound 318]",
    "IC50": "5 to 20 µM"
  },
  {
    "molecule": "CNC(=O)c1oc2ccc(S(=O)(=O)N3CCCCCC3)cc2c1C [compound 145]",
    "IC50": "< 20 µM"
  },
  {
    "molecule": "O=C(NCCC1CCOCC1)c1cc2cc(S(=O)(=O)N3CCCCCC3)ccc2o1 [compound 23]",
    "IC50": "< 5 µM"
  },
  {
    "molecule": "CCNC(=O)c1cc2cc(S(=O)(=O)N3CCC(C)CC3)ccc2[nH]1 [compound 130]",
    "IC50": "< 5 µM"
  },
  {
    "molecule": "Cc1ccc(CNC(=O)c2oc3ccc(S(=O)(=O)N4CCCC4)cc3c2C)cc1 [compound 86]",
    "IC50": "5 to 20 µM"
  },
  {
    "molecule": "O=C(NCc1ccccc1)c1cc2cc(S(=O)(=O)N3CCCCCC3)ccc2o1 [compound 34]",
    "IC50": "< 5 µM"
  },
  {
    "molecule": "Cc1c(C(=O)NC2CCCCC2)oc2ccc(S(=O)(=O)N3CC(C)CC(C)C3)cc12 (stereo not shown) [compound 62]",
    "IC50": "< 5 µM"
  },
  {
    "molecule": "CCN(CC)S(=O)(=O)c1ccc2oc(C(=O)NCC3CCOCC3)c(C)c2c1 [compound 458]",
    "IC50": "< 20 µM"
  },
  {
    "molecule": "Cc1c(C(=O)NCCC2CCOCC2)oc2ccc(S(=O)(=O)N3CC(C)CC(C)C3)cc12 (stereo not shown) [compound 6]",
    "IC50": "< 5 µM"
  }
]

---

Target: CaV2.2 (Homo sapiens, UniProt Q00975)
Construct: expressed in transfected cells; host or cells: HEK293
Test: VIPR optical membrane potential assay with electrical stimulation
Assay type: cell-based
Details: Table 3, biological assay data; read-out: IC50
Procedure: Antagonist properties of test compounds were assessed as follows. Cells expressing the CaV of interest were placed into microtiter plates. […] The cells were stimulated with electrical means to evoke a CaV dependent membrane potential change from unblocked channels, which was detected and measured with trans-membrane potential-sensitive dyes. Antagonists were detected as a decreased membrane potential response to the stimulus. […] Allow solution to sit for 10 minutes. […] Run plate on the optical reader. […]
Entries and their measured IC50 follow.

[
  {
    "compound": "CC1CCN(S(=O)(=O)c2ccc3[nH]c(C(=O)N4CCN(C)CC4)cc3c2)CC1",
    "target": "CaV2.2 (Homo sapiens, UniProt Q00975)",
    "IC50": "5 to 20 µM"
  },
  {
    "compound": "CCN(CC)C(=O)c1cc2cc(S(=O)(=O)N3CC(C)CC(C)C3)ccc2[nH]1 (stereo not drawn)",
    "target": "CaV2.2 (Homo sapiens, UniProt Q00975)",
    "IC50": "< 5 µM"
  },
  {
    "compound": "Cc1c(C(=O)NC2CCCC2)oc2ccc(S(=O)(=O)N3CCCCCC3)cc12",
    "target": "CaV2.2 (Homo sapiens, UniProt Q00975)",
    "IC50": "< 5 µM"
  }
]

---

Biological target: CaV2.2 (Homo sapiens, UniProt Q00975)
Construct: expressed in transfected cells; host or cells: HEK293
Assay: VIPR optical membrane potential assay with electrical stimulation
Type: cell-based
Settings: Table 3, biological assay data; read-out: IC50
pIC50: −log10 of the molar value.

[
  {
    "compound": "O=C(NCC1CCCO1)c1cc2cc(S(=O)(=O)N3CCCCCC3)ccc2[nH]1 (centres unmarked)",
    "pIC50": "> 5.30"
  },
  {
    "compound": "Cc1c(C(=O)NC2CC2)oc2ccc(S(=O)(=O)Nc3cccnc3)cc12",
    "pIC50": "> 4.70"
  },
  {
    "compound": "CC1CC(C)CN(S(=O)(=O)c2ccc3[nH]c(C(=O)NCc4ccccc4)cc3c2)C1 (centres unmarked)",
    "pIC50": "> 5.30"
  },
  {
    "compound": "Cc1c(C(=O)N2CCC(C)CC2)oc2ccc(S(=O)(=O)N3CCCC(C)C3)cc12 (centres unmarked)",
    "pIC50": "> 5.30"
  },
  {
    "compound": "CC1CCN(S(=O)(=O)c2ccc3[nH]c(C(=O)NCCc4ccccc4)cc3c2)CC1",
    "pIC50": "> 5.30"
  },
  {
    "compound": "COc1ccc(CNC(=O)c2oc3ccc(S(=O)(=O)N4CCC(C)CC4)cc3c2C)cc1",
    "pIC50": "> 5.30"
  },
  {
    "compound": "CC1CCN(C(=O)c2cc3cc(S(=O)(=O)N4CC(C)CC(C)C4)ccc3o2)CC1 (centres unmarked)",
    "pIC50": "> 5.30"
  },
  {
    "compound": "Cc1c(C(=O)NCCCN2CCCC2=O)oc2ccc(S(=O)(=O)N3CC(C)CC(C)C3)cc12 (centres unmarked)",
    "pIC50": "4.70 to 5.30"
  },
  {
    "compound": "CC1CCN(S(=O)(=O)c2ccc3[nH]c(CN4CCN(C)CC4)cc3c2)CC1",
    "pIC50": "4.70 to 5.30"
  },
  {
    "compound": "COc1ccccc1CNC(=O)c1oc2ccc(S(=O)(=O)N3CCCCC3)cc2c1C",
    "pIC50": "4.70 to 5.30"
  },
  {
    "compound": "CC1CCN(S(=O)(=O)c2ccc3oc(C(=O)NC(C)C)cc3c2)CC1",
    "pIC50": "> 5.30"
  }
]

---

Molecular target: CaV2.2 (Homo sapiens)
Construct: expressed in transfected cells; host or cells: HEK293
Experiment: VIPR optical membrane potential assay with electrical stimulation
Assay type: cell-based
Conditions: Table 3, biological assay data; read-out: IC50
pIC50: −log10 of the molar value.

[
  {
    "compound": "Cc1c(C(=O)N2CCCCC2)oc2ccc(S(=O)(=O)N3CCCCC3)cc12",
    "pIC50": "4.70 to 5.30"
  },
  {
    "compound": "Cc1c(C(=O)NCCCc2ccccc2)oc2ccc(S(=O)(=O)N3CCCCCC3)cc12",
    "pIC50": "4.70 to 5.30"
  },
  {
    "compound": "Cc1c(C(=O)NCCN2CCOCC2)oc2ccc(S(=O)(=O)N3CCCCCC3)cc12",
    "pIC50": "4.70 to 5.30"
  },
  {
    "compound": "Cc1c(C(=O)N2CCCCC2)oc2ccc(S(=O)(=O)N3CCCCCC3)cc12",
    "pIC50": "4.70 to 5.30"
  },
  {
    "compound": "CCOC(=O)N1CCN(C(=O)c2cc3cc(S(=O)(=O)N4CC(C)CC(C)C4)ccc3o2)CC1 (stereo not shown)",
    "pIC50": "> 5.30"
  },
  {
    "compound": "CCOC(=O)N1CCN(C(=O)c2cc3cc(S(=O)(=O)N4CCCCCC4)ccc3o2)CC1",
    "pIC50": "4.70 to 5.30"
  },
  {
    "compound": "CCOC(=O)C1CCN(C(=O)c2oc3ccc(S(=O)(=O)N4CC(C)CC(C)C4)cc3c2C)CC1 (stereo not shown)",
    "pIC50": "> 5.30"
  }
]
